System: K562
measurementProtocol: Antiproliferative activity against human K562 cells assessed as inhibition of cell proliferation incubated for 48 hrs by MTT assay
Format: functional, cell-based
protocolConditions: K562, 48 h
parameterMeasured: IC50 (µM)

I: CC(C)(C)C(=O)Nc1ccc(-c2cccc(C(=O)N[C@H]3CN[C@@H](C(=O)Nc4ccc(Cl)c(C(F)(F)F)c4)C3)c2)cn1
II: C[C@H](NC(=O)c1cccc(-c2cncc(C(=O)NC3CC3)c2)c1)C(=O)Nc1ccc(Cl)c(C(F)(F)F)c1
stdin: Name the one with the greater IC50 value, either I or II as given. Selection: enter the item's label.
stdout: I

====

Tested on: K562
measurementProtocol: Antiproliferative activity against human K562 cells assessed as inhibition of cell proliferation incubated for 48 hrs by MTT assay
Format: functional, cell-based
protocolConditions: K562, 48 h
parameterMeasured: IC50 (µM)

Would you please look over these solved cases?
1. C[C@H](NC(=O)c1ccc(-c2ccc(NC(=O)C(C)(C)C)nc2)cc1)C(=O)Nc1ccc(Cl)c(C(F)(F)F)c1 | 7.45
2. Nc1ccc(-c2cccc(C(=O)N[C@H]3CN[C@@H](C(=O)Nc4ccc(Cl)c(C(F)(F)F)c4)C3)c2)cn1 | 20

P: CCN(CC)C(=O)c1cncc(-c2cccc(C(=O)N[C@H]3CN[C@@H](C(=O)Nc4ccc(Cl)c(C(F)(F)F)c4)C3)c2)c1
Q: C[C@H](NC(=O)c1ccc(-c2ccc(NS(C)(=O)=O)nc2)cc1)C(=O)Nc1ccc(Cl)c(C(F)(F)F)c1
stdin: Could you tell me which of these two has the smaller IC50 figure? First: P Second: Q Selection: enter the item's label.
stdout: Q
(Q: 7.24 µM, P: 24.9 µM)

Where these numbers come from: ChEMBL document CHEMBL5055648
